These data points were gathered from the supplement of paper PMC9233669.

# System: biotinyl-Met-oxazolone
# procedure_summary: self-aminoacylation, catalytic enhancement (BMO) (fold over background); higher = more active; k-Seq, kA / k0A0; sequences stand for … in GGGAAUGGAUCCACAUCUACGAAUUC…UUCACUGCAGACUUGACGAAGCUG
Fewer inactive variants are shown than the library holds.
quantity: self-aminoacylation
Reply briefly: the number, and no unit.

Field: example entries. Status: answers known.
CUGCUUCAAACCAUCGGUCUG [Fam1A.1 aminoacylation ribozyme variant]
0.677
AUUACCCUGGUCAUCGGGUCA [Fam2.1 aminoacylation ribozyme variant]
5.33
AAGUUUGCUAAGUGUCGCAAG [Fam3.1 aminoacylation ribozyme variant]
0.887

In: Request: self-aminoacylation, test system biotinyl-Met-oxazolone, entry AAGGUUGCUAAUAGUCGGAAG [Fam3.1 aminoacylation ribozyme variant]
Out: 1.08
